Cited source: patent US20220267313A1

assay: Cytotoxicity determination by CCK-8 assay, HepG2.2.15 cells; assay type: cell-based; settings: human, 6 days treatment
Each entry below carries its recorded log10(CC50 at 6 days).
measured-endpoint: log10(CC50 at 6 days) (log10 of the value in nM)

>  <compound>
COC(=O)C1=C(C23C4C5C2C2C3C4C52C(=O)O)NC(c2nccn2C)=NC1c1ccc(F)c(F)c1Cl (single isomer, unassigned)

>  <log10(CC50 at 6 days)>
2.47

$$$$
>  <compound>
CC(C)OC(=O)C1=C(C23C4C5C2C2C3C4C52C(=O)O)NC(c2nccs2)=NC1c1ccc(F)c(F)c1Cl (single isomer, unassigned)

>  <log10(CC50 at 6 days)>
1.57

$$$$
>  <compound>
COC(=O)C1=C(C23C4C5C2C2C3C4C52C(=O)O)NC(c2nccs2)=N[C@@H]1c1ccc(F)c(F)c1F (stereo in doubt)

>  <log10(CC50 at 6 days)>
2.45

$$$$
>  <compound>
COC(=O)C1=C(C23C4C5C2C2C3C4C52C(=O)O)NC(c2nccs2)=N[C@@H]1c1cccc(F)c1Br (stereo in doubt)

>  <log10(CC50 at 6 days)>
2.10

$$$$
>  <compound>
COC(=O)C1=C(C23C4C5C2C2C3C4C52C(=O)O)NC(c2ncc(F)cc2F)=NC1c1cccc(F)c1C (single isomer, unassigned)

>  <log10(CC50 at 6 days)>
2.20

$$$$
>  <compound>
CCOC(=O)C1=C(C23C4C5C2C2C3C4C52C(=O)O)NC(c2nccs2)=NC1c1ccc(F)cc1C (single isomer, unassigned)

>  <log10(CC50 at 6 days)>
1.63

$$$$
>  <compound>
CCCOC(=O)C1=C(C23C4C5C2C2C3C4C52C(=O)O)NC(c2nccs2)=NC1c1ccc(F)c(F)c1Cl (single isomer, unassigned)

>  <log10(CC50 at 6 days)>
1.72

$$$$
>  <compound>
CCOC(=O)C1=C(C23C4C5C2C2C3C4C52CC(C)(C)C(=O)O)NC(c2nccs2)=N[C@@H]1c1ccc(F)c(F)c1Cl (single isomer, unassigned)

>  <log10(CC50 at 6 days)>
1.42

$$$$
>  <compound>
CCOC(=O)C1=C(C23C4C5C2C2C3C4C52C(=O)O)NC(c2nccs2)=N[C@@H]1c1ccc(F)cc1Cl (stereo in doubt)

>  <log10(CC50 at 6 days)>
1.26

$$$$
>  <compound>
CCOC(=O)C1=C(C23C4C5C2C2C3C4C52C(=O)O)NC(c2nccs2)=NC1c1ccc(F)c(F)c1F (single isomer, unassigned)

>  <log10(CC50 at 6 days)>
1.45

$$$$
